Kindly supply the reported pIC50 values for the records listed here.
# measuredOn: recombinant Li-TryR (Leishmania infantum, UniProt A4HSF7)
# Sequence (A4HSF7 entry or part of it): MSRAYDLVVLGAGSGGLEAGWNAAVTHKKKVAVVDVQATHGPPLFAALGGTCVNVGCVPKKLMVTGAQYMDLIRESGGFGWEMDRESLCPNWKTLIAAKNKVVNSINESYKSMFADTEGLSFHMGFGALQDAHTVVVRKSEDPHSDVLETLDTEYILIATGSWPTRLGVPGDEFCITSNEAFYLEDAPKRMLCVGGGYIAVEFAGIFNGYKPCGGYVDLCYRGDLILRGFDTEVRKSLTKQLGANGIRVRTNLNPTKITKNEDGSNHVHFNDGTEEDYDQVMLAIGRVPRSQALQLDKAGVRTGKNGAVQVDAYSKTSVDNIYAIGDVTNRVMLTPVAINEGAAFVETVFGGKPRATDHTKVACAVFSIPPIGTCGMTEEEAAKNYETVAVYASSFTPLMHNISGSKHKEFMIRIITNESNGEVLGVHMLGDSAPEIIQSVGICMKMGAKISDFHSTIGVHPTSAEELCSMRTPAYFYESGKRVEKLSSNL
# procedureSummary: Li-TryR oxidoreductase activity assay
# Format: biochemical
# setupConditions: read-out: IC50 act
# Procedure: Oxidoreductase activity was determined according to the method described by Hamilton et al. (Biochem. J., 2003, 369, 529-537). […] Enzyme activity was monitored by the increase in absorbance at 412 nm for 1 h at 26 °C in a VERSAmax microplate reader (Molecular Devices, California, USA). […] Data were analyzed using a non-linear regression model with the Grafit6 software (Erithacus, Horley, Surrey, UK).
Counter-ions that a name gives are not always drawn.
Keep in mind that pIC50 stands for -log10 of concentration in molar terms.

Incoming: GET /values?readout=pIC50&item= C[n+]1nn(-c2ccc(-c3nc(CCc4ccccc4)cs3)c(OCCN3CCNC3=O)c2)cc1CCCN [Compound 10i]
Outgoing: 4.67

Incoming: Follow-up item: C[n+]1nn(-c2ccc(-c3nc(-c4ccccc4)cs3)c(OCCN3CCNC3=O)c2)cc1CCCCN [Compound 10a]
Outgoing: 4.64

Incoming: Follow-up item: C[n+]1nn(-c2ccc(-c3nc(CCc4ccc(-c5ccccc5)cc4)cs3)c(OCCN3CCNC3=O)c2)cc1CCCN [Compound 10j]
Outgoing: 5.16

Incoming: Follow-up item: C[n+]1nn(-c2ccc(-c3nc(CCc4ccccc4)cs3)c(OCCN3CCNC3=O)c2)cc1CCCCN [Compound 10b]
Outgoing: 4.89

Incoming: Follow-up item: NCCCc1cn(-c2ccc(-c3nc(CCc4ccccc4)cs3)c(OCCN3CCNC3=O)c2)nn1 [Compound 8n, trifluoroacetate]
Outgoing: 4.38

Incoming: Follow-up item: C[n+]1nn(-c2ccc(-c3nc(CCc4ccccc4)cs3)c(OCCC3CCNCC3)c2)cc1CCCCN [Compound 10k]
Outgoing: 5.47

====

# Tested on: HepG2 cells
# procedureSummary: Cytotoxicity assay, HepG2 (crystal violet)
# Type: cell-based
# setupConditions: Homo sapiens, HepG2, 24 h
Counter-ions that a name gives are not always drawn.
Kindly supply the reported EC50 values for the records listed here.
State just the number; it will be interpreted in µM.

Incoming: GET /values?readout=EC50&item= CC[n+]1nn(-c2ccc(-c3nc(CCc4ccc(-c5ccccc5)cc4)cs3)c(OCCN3CCNC3=O)c2)cc1CCCCN [Compound 10f]
Outgoing: 69.9

Incoming: Follow-up item: NCCCCc1cn(-c2ccc(-c3nc(CCc4ccc5ccccc5c4)cs3)c(OCCN3CCNC3=O)c2)nn1 [Compound 8g, trifluoroacetate]
Outgoing: 33.3

====

# System: HepG2 cells
# procedureSummary: Cytotoxicity assay, HepG2 (crystal violet)
# Assay type: cell-based
# setupConditions: Homo sapiens, HepG2, 24 h
Counter-ions that a name gives are not always drawn.
Kindly supply the reported EC50 values for the records listed here.
State just the number; it will be interpreted in µM.

Incoming: Hello, I am looking for reported EC50 with HepG2 cells for NCCCCc1cn(-c2ccc(-c3nc(CCc4ccccc4)cs3)c(OCCN3CCNC3=O)c2)nn1 [Compound 8e, trifluoroacetate] . Could you help?
Outgoing: 20.4

Incoming: Follow-up item: NCCCCc1cn(-c2ccc(-c3nc(CCc4ccc(-c5ccccc5)cc4)cs3)c(OCCN3CCNC3=O)c2)nn1 [Compound 8h, trifluoroacetate]
Outgoing: 43.1
